Tested on: AGS gastric carcinoma cells [heterozygous G12D]
PROTOCOL DETAILS: Cancer cell line proliferation (CellTiter-Glo), AGS
Format: cell-based
CONDITION SET: Homo sapiens, 72 hr treatment, read-out: AGS CTG (EC50)
METRIC NAME: EC50

Memo: C#Cc1cccc2cc(O)cc(-c3ncc4c(N5CC6CCC(C5)N6)nc(OCC5(CN6CCC(OC7CCN(C(=O)C8CCN(Cc9ccc%10c(c9)CN(C(=O)c9cc(C(C)C)c(O)cc9O)C%10)CC8)CC7)CC6)CC5)nc4c3F)c12 , reported EC50: < 100 nM

Memo: CCNC(=O)c1nnc(-c2cc(C(C)C)c(O)cc2O)n1-c1ccc(CN2CCC(C(=O)N(C)[C@H]3CN4CCC[C@@]4(COc4nc(N5CC6CCC(C5)N6)c5cnc(-c6cc(O)cc7ccccc67)c(F)c5n4)C3)CC2)cc1 , reported EC50: 100 to 1000 nM
